test: Acute toxicity test, rat (SD); conditions: in vivo, po, male, peroral
MEASUREMENT NAME: LD50

Q) Which measured LD50 value corresponds to CC(=O)CCC=C(C)CCC=C(C)CCC=C(C)CCC=C(C)C [teprenone] ?
A) > 15000 mg/kg

====

test: Acute toxicity test, rat (SD); settings: in vivo, im, female, intramuscular
MEASUREMENT NAME: LD50

Q) Which measured LD50 value corresponds to `CC(=O)CCC=C(C)CCC=C(C)CCC=C(C)CCC=C(C)C` ?
A) > 5000 mg/kg

====

assay: Acute toxicity test, mouse (ICR); settings: in vivo, ip, female, intraperitoneal
MEASUREMENT NAME: LD50 (mg/kg)
Report as a plain number; the unit mg/kg is understood.

Q) Which measured LD50 value corresponds to CC(=O)CCC=C(C)CCC=C(C)CCC=C(C)CCC=C(C)C [teprenone] ?
A) 3850

====

experiment: Acute toxicity test, dog (beagle); settings: in vivo, po, male, peroral
MEASUREMENT NAME: LD50

Q) Which measured LD50 value corresponds to CC(=O)CCC=C(C)CCC=C(C)CCC=C(C)CCC=C(C)C [teprenone] ?
A) > 1000 mg/kg

====

assay: Acute toxicity test, mouse (ICR); conditions: in vivo, im, female, intramuscular
MEASUREMENT NAME: LD50

Q) Which measured LD50 value corresponds to `CC(=O)CCC=C(C)CCC=C(C)CCC=C(C)CCC=C(C)C` ?
A) > 5000 mg/kg

====

test: Acute toxicity test, rat (SD); conditions: in vivo, po, female, peroral
MEASUREMENT NAME: LD50

Q) Which measured LD50 value corresponds to `CC(=O)CCC=C(C)CCC=C(C)CCC=C(C)CCC=C(C)C` ?
A) > 15000 mg/kg

====

assay: Acute toxicity test, mouse (ICR); conditions: in vivo, im, male, intramuscular
MEASUREMENT NAME: LD50

Q) Which measured LD50 value corresponds to `CC(=O)CCC=C(C)CCC=C(C)CCC=C(C)CCC=C(C)C` ?
A) > 5000 mg/kg

====

test: Acute toxicity test, rat (SD); conditions: in vivo, ip, female, intraperitoneal
MEASUREMENT NAME: LD50

Q) Which measured LD50 value corresponds to CC(=O)CCC=C(C)CCC=C(C)CCC=C(C)CCC=C(C)C [teprenone] ?
A) 3500 to 5000 mg/kg

====

assay: Acute toxicity test, mouse (ICR); settings: in vivo, po, male, peroral
MEASUREMENT NAME: LD50

Q) Which measured LD50 value corresponds to `CC(=O)CCC=C(C)CCC=C(C)CCC=C(C)CCC=C(C)C` ?
A) > 15000 mg/kg

====

experiment: Acute toxicity test, mouse (ICR); settings: in vivo, sc, male, subcutaneous
MEASUREMENT NAME: LD50

Q) Which measured LD50 value corresponds to CC(=O)CCC=C(C)CCC=C(C)CCC=C(C)CCC=C(C)C [teprenone] ?
A) > 10000 mg/kg

====

experiment: Acute toxicity test, mouse (ICR); conditions: in vivo, po, female, peroral
MEASUREMENT NAME: LD50

Q) Which measured LD50 value corresponds to CC(=O)CCC=C(C)CCC=C(C)CCC=C(C)CCC=C(C)C [teprenone] ?
A) > 15000 mg/kg
